test: Platelet Aggregation Secondary Assay for Inhibitors of Platelet Integrin alphallb-beta3; conditions: platelet-rich plasma, ADP-induced aggregation, absorbance 563 nm
Calls of active or inactive are those of the source. Calls follow the shape of the full dose curve.
Can you answer with just one of these options? 1 (active), -1 (inactive)

MOLECULE	CAT
CCc1nn2c(=O)cc(N3C(C)CNCC3C)nc2s1 (stereo not given)	-1
O=c1cc(N2CCNCC2)nc2sc(-c3cccc(-c4ccnc(F)c4)c3)nn12	1
Nc1ccc(-c2cccc(-c3nn4c(=O)cc(N5CCNCC5)nc4s3)c2)cc1	1

**Query** Which outcome was entered for the molecule NCC(=O)Nc1cccc(-c2nn3c(=O)cc(N4CCNCC4)nc3s2)c1 in this test?
**Result** 1

**Query** Please do the same for O=c1cc(N2CCNCC2)nc2sc(-c3cccc(-c4ccncc4)c3)nn12 as well.
**Result** 1

**Query** Try this molecule too: NCCC(=O)Nc1cccc(-c2nn3c(=O)cc(N4CCNCC4)nc3s2)c1
**Result** 1

**Query** Try O=C(Nc1cccc(-c2nn3c(=O)cc(N4CCNCC4)nc3s2)c1)C1CCNCC1 next.
**Result** 1

**Query** // same read-out, input: O=C(Nc1cccc(-c2nn3c(=O)cc(N4CCNCC4)nc3s2)c1)c1ccon1
**Result** -1

**Query** O=C(O)c1cccc(-c2cccc(-c3nn4c(=O)cc(N5CCNCC5)nc4s3)c2)c1 ?
**Result** -1

**Query** CNCC(=O)Nc1cccc(-c2nn3c(=O)cc(N4CCNCC4)nc3s2)c1 ?
**Result** -1

---

test: Platelet Aggregation Secondary Assay for Inhibitors of Platelet Integrin alphallb-beta3; details: platelet-rich plasma, ADP-induced aggregation, absorbance 563 nm
Calls of active or inactive are those of the source. Calls come from the whole dose curve.
Readings of Potency for the listed compounds

QUERY_SMILES	MEASURED
O=C(O)c1ccc(-c2nn3c(=O)cc(N4CCNCC4)nc3s2)cc1	5.4 µM (active)

Please examine the following record next.
**Query** Looking for the measured Potency of Nc1ncc(-c2cccc(-c3nn4c(=O)cc(N5CCNCC5)nc4s3)c2)cn1 , can you help?
**Result** 10.1 µM (active)
